These data points were gathered from patent US20260009799A1.

# System: HT-29 excised tumors and tissues
# assay.summary: Ex vivo biodistribution in excised tumors and organs
# Design: species or system mice
# reported.conditions: samples collected 24 hours after administration, 1 nmol, tumor vs hind limb muscle
Task for the reader: assign each of the following molecules its reported ex vivo TBR (mean ± SD), HT-29 tumor.

Here's what some known entries look like.
1) CC(=O)NC(CCCCn1cc(CCCC(=O)Nc2nnc(S(N)(=O)=O)s2)nn1)C(=O)NCCOCCOCCNC(=O)CCCCCN1/C(=C/C=C2\CCCC(/C=C/C3=[N+](CCCCS(=O)(=O)[O-])c4ccc(C(=O)NC[C@H](O)[C@@H](O)[C@H](O)[C@H](O)CO)cc4C3(C)C)=C2Oc2ccc(S(=O)(=O)O)cc2)C(C)(C)c2cc(C(=O)NC[C@H](O)[C@@H](O)[C@H](O)[C@H](O)CO)ccc21 (some centres unmarked) [Reference 2]; 9.2 ± 3.3
2) CC1(C)C(/C=C/C2=C(Oc3ccc(S(=O)(=O)O)cc3)C(=C/C=C3/N(CCCCCC(=O)NCCCCCCCC(=O)Nc4nnc(S(N)(=O)=O)s4)c4ccc(C(=O)NC[C@H](O)[C@@H](O)[C@H](O)[C@H](O)CO)cc4C3(C)C)/CCC2)=[N+](CCCCS(=O)(=O)[O-])c2ccc(C(=O)NC[C@H](O)[C@@H](O)[C@H](O)[C@H](O)CO)cc21; 13.4 ± 2.2
3) CC(=O)NC(CCCCn1cc(CCCC(=O)Nc2nnc(S(N)(=O)=O)s2)nn1)C(=O)NCCOCCOCCNC(=O)CCCCCN1/C(=C/C=C/C=C/C=C/C2=[N+](CCC(C)S(=O)(=O)[O-])c3ccc(C(=O)NC[C@H](O)[C@@H](O)[C@H](O)[C@H](O)CO)cc3C2(C)C)C(C)(C)c2cc(C(=O)NC[C@H](O)[C@@H](O)[C@H](O)[C@H](O)CO)ccc21 (some centres unmarked) [Reference 3]; 14.7 ± 2.3

# per-item lookup of ex vivo TBR (mean ± SD), HT-29 tumor; items listed below
1. CC(CC[N+]1=C(/C=C/C=C/C=C/C=C2/N(CCCCCC(=O)NCCCCCCCC(=O)Nc3nnc(S(N)(=O)=O)s3)c3ccc(C(=O)NC[C@H](O)[C@@H](O)[C@H](O)[C@H](O)CO)cc3C2(C)C)C(C)(C)c2cc(C(=O)NC[C@H](O)[C@@H](O)[C@H](O)[C@H](O)CO)ccc21)S(=O)(=O)[O-] (some centres unmarked)
2. CC1(C)C(/C=C/C2=C(Oc3ccc(CCC(=O)NCCCCCCCC(=O)Nc4nnc(S(N)(=O)=O)s4)cc3)C(=C/C=C3/N(CCCCS(=O)(=O)O)c4ccc(S(=O)(=O)O)cc4C3(C)C)/CCC2)=[N+](CCCCS(=O)(=O)[O-])c2ccc(S(=O)(=O)O)cc21 [Reference 1]

23.1 ± 6.7
3.1 ± 0.3

###

# assay.target: recombinant bovine CA-II enzyme (bCAII) (Bos taurus, UniProt P00921)
# Sequence (P00921 whole entry): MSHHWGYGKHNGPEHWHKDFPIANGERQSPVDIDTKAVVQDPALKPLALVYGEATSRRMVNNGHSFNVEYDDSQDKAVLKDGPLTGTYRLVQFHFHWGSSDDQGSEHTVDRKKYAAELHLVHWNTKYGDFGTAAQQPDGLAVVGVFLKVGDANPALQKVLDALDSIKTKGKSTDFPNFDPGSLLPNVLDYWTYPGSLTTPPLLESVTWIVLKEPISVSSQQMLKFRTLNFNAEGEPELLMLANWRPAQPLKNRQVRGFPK
# assay.summary: Fluorescence-based dansylamide (DNSA) displacement assay on carbonic anhydrase catalytic site
quantity.name: Kd (nM)
One number for each entry, in nM.

1. CC(=O)NC(CCCCn1cc(CCCC(=O)Nc2nnc(S(N)(=O)=O)s2)nn1)C(=O)NCCOCCOCCNC(=O)CCCCCN1/C(=C/C=C2\CCCC(/C=C/C3=[N+](CCCCS(=O)(=O)[O-])c4ccc(C(=O)NC[C@H](O)[C@@H](O)[C@H](O)[C@H](O)CO)cc4C3(C)C)=C2Oc2ccc(S(=O)(=O)O)cc2)C(C)(C)c2cc(C(=O)NC[C@H](O)[C@@H](O)[C@H](O)[C@H](O)CO)ccc21 (stereo partly shown) [Reference 2]; 55.8
2. CC(=O)NC(CCCCn1cc(CCCC(=O)Nc2nnc(S(N)(=O)=O)s2)nn1)C(=O)NCCOCCOCCNC(=O)CCCCCN1/C(=C/C=C/C=C/C=C/C2=[N+](CCC(C)S(=O)(=O)[O-])c3ccc(C(=O)NC[C@H](O)[C@@H](O)[C@H](O)[C@H](O)CO)cc3C2(C)C)C(C)(C)c2cc(C(=O)NC[C@H](O)[C@@H](O)[C@H](O)[C@H](O)CO)ccc21 (stereo partly shown) [Reference 3]; 30.2
3. CC1(C)C(/C=C/C2=C(Oc3ccc(S(=O)(=O)O)cc3)C(=C/C=C3/N(CCCCCC(=O)NCCCCCCCC(=O)Nc4nnc(S(N)(=O)=O)s4)c4ccc(C(=O)NC[C@H](O)[C@@H](O)[C@H](O)[C@H](O)CO)cc4C3(C)C)/CCC2)=[N+](CCCCS(=O)(=O)[O-])c2ccc(C(=O)NC[C@H](O)[C@@H](O)[C@H](O)[C@H](O)CO)cc21; 13.5

Please find the next compound below.
Reported Kd (recombinant bovine CA-II enzyme (bCAII) (Bos taurus, UniProt P00921)) for entry CC(CC[N+]1=C(/C=C/C=C/C=C/C=C2/N(CCCCCC(=O)NCCCCCCCC(=O)Nc3nnc(S(N)(=O)=O)s3)c3ccc(C(=O)NC[C@H](O)[C@@H](O)[C@H](O)[C@H](O)CO)cc3C2(C)C)C(C)(C)c2cc(C(=O)NC[C@H](O)[C@@H](O)[C@H](O)[C@H](O)CO)ccc21)S(=O)(=O)[O-] (stereo partly shown) is 6.1
